Assignment: determine reported GI50 for the given compounds.
# Tested on: MDA-MB-468 breast
# method.notes: NCI tumour cell line growth inhibition, 48 h

compound	value
CC(C)=CC(=O)N[C@H]1CC[C@]2(C)C3CC[C@]4(C)C(C(C)N(C)C)=CCC4C3CCC2[C@H]1O (some centres not stated)	1650 nM
O=C(Nc1ccc(F)cc1)Nc1ccc(Br)c(C(F)(F)F)c1	2220 nM
COC1=CC(c2ccc[nH]2)=N/C1=C\c1[nH]c(C)c(CC(=O)OCc2ccccc2)c1C	595 nM
Cc1ccc2c(c1)C(=O)c1c-2c(OCCCN(C)C)nc2ccccc12	1430 nM
C=C1C(=O)O[C@H]2[C@H]1CC/C(COC(=O)CCCc1c[nH]c3ccccc13)=C\CC[C@@]1(C)O[C@@H]21	1760 nM
C=C1SC(=Nc2ccccc2Cl)N(C(=O)c2sc3ccccc3c2Cl)C12CCCCC2	4910 nM
O=C(/C=C1\C(=O)N(Cc2ccccc2)c2ccccc21)c1ccc(OCCN2CCCCC2)cc1	1920 nM
Clc1ccc2nc(CI)c(CI)nc2c1	4700 nM

// each compound listed below needs its GI50
1. Cc1cc(OCCOCCC(F)(F)P(=O)(O)O)ccc1CCc1cnc2c(N)nc3cc(CCC(=O)O)ccc3c2c1
2. NC(N)=NC(N)=NCCCc1ccco1
3. C[n+]1c2ccccc2nc2ccccc21
4. N#C/C(=N\Nc1ccccc1)C(=O)Nc1cc(-c2ccccc2)nn1-c1ccccc1

-- reply
1. > 100000 nM
2. 81800 nM
3. 711 nM
4. 1420 nM

---

# Test system: MDA-MB-468 breast
# method.notes: NCI tumour cell line growth inhibition, 48 h
recorded.endpoint: TGI (µM)
One number for each entry, in µM.

Cn1ccnc1C(=O)/C=C/c1ccc(CNC(=O)c2ccc(S(F)(F)(F)(F)F)cc2)cc1 8.71
Cn1c(-c2ccccc2)c(/C=C/C2=[N+](C)c3ccccc3C2(C)C)c2ccccc21 2.85

Next item in the queue.
For reference, reported TGI for `COC(=O)c1c2c(c(C)[n+]([O-])c1C)C(=O)C=C(NCc1cccc(Cl)c1)C2=O` stands at 0.732

The measurements presented in this section are drawn from PubChem BioAssay (NCI).
